Organism: Rattus norvegicus
Assay type: toxicity, organism-based, Sprague-Dawley
Details: in vivo, po, […], 24 h, tissue Blood, route oral GAVAGE, dose 7.5 mg/Kg, dose level High, time 1 day, vehicle 100 % SALINE
Description: DrugMatrix - Regimen: Single
MEASUREMENT_TYPE: ABSOLUTE MONOCYTE (cells/µL)
Numbers only here, please. The scale is cells/µL.

molecule Nc1ncnc2c1ncn2[C@@H]1O[C@H](CO)[C@@H](O)[C@H]1F , ABSOLUTE MONOCYTE observed: 240

----------
Species: Rattus norvegicus
Assay: DrugMatrix - Regimen: Daily Repeat
Type: toxicity, organism-based, Sprague-Dawley
Parameters: regimen Daily Repeat, gender Male, age 6-8 weeks
Conditions: in vivo, po, 50 mg/kg, 120 h, tissue Blood, route oral GAVAGE, dose level Low, time 5 day, vehicle .5 % CMC
MEASUREMENT_TYPE: MONOCYTE (%)
Respond with the bare value in %.

Worked examples follow.
- MOLECULE: "NC1CCN(c2nc3c(cc2F)c(=O)c(C(=O)O)cn3-c2ccc(F)cc2F)C1 (centres undefined)"
  MONOCYTE (%): 0
- MOLECULE: "CN(C)[C@@H]1C(O)=C(C(N)=O)C(=O)[C@@]2(O)C(O)=C3C(=O)c4c(O)ccc(Cl)c4[C@@](C)(O)[C@H]3C[C@@H]12"
  MONOCYTE (%): 0
- MOLECULE: "Cc1cccc(C)c1OCC(C)N (centres undefined)"
  MONOCYTE (%): 1.67

Now for a further molecule.
The reported MONOCYTE of the molecule CCN1CCC[C@H]1CNC(=O)c1cc(S(N)(=O)=O)ccc1OC [LEVOSULPIRIDE] was 2.67

----------
Organism: Rattus norvegicus
Assay: DrugMatrix - Regimen: Daily Repeat
Type: toxicity, organism-based, Sprague-Dawley
Set-up: regimen Daily Repeat, gender Male, age 6-8 weeks
Details: in vivo, po, 0 mg/kg, 120 h, tissue Blood, route oral GAVAGE, dose level Control, time 5 day, vehicle 100 % WATER
MEASUREMENT_TYPE: EOSINOPHIL (%)
The reply should be a number in %, with the unit left off.

compound CC(C)(C)CC(C)(C)c1ccc(OCCOCC[N+](C)(C)Cc2ccccc2)cc1.[Cl-] [BENZETHONIUM CHLORIDE] , EOSINOPHIL observed: 0.17

In plain terms, C[C@]12C=CC(=O)C=C1CC[C@@H]1[C@@H]2[C@@H](O)C[C@@]2(C)[C@H]1CC[C@]2(O)C(=O)CO has a documented EOSINOPHIL of 0.17

For reference, reported EOSINOPHIL for CN(C)CCOC(c1ccccc1)c1ccccc1 [DIPHENHYDRAMINE] stands at 0.17

----------
Species: Rattus norvegicus
Assay: DrugMatrix - Regimen: Daily Repeat
Type: toxicity, organism-based, Sprague-Dawley
Parameters: regimen Daily Repeat, gender Male, age 6-8 weeks
Settings: in vivo, po, 1500 mg/kg, 72 h, tissue Blood, route oral GAVAGE, dose level High, time 3 day, vehicle .5 % CMC
MEASUREMENT_TYPE: MEAN CORPUSCULAR VOLUME (fL)
The answer is to be given in fL; state only the numeric part.

- MOLECULE: "CC(C)Oc1ccc2c(=O)c(-c3ccccc3)coc2c1"
  MEASUREMENT_TYPE: "MEAN CORPUSCULAR VOLUME"
  UOM: "fL"
  OBSERVED_MEASUREMENT: 61.63
- MOLECULE: "COC(=O)Nc1nc2ccc([S+]([O-])c3ccccc3)cc2[nH]1 (stereo not given)"
  MEASUREMENT_TYPE: "MEAN CORPUSCULAR VOLUME"
  UOM: "fL"
  OBSERVED_MEASUREMENT: 59.03
- MOLECULE: "O=c1cnn([C@@H]2O[C@H](CO)[C@@H](O)[C@H]2O)c(=O)[nH]1"
  MEASUREMENT_TYPE: "MEAN CORPUSCULAR VOLUME"
  UOM: "fL"
  OBSERVED_MEASUREMENT: 60.9
- MOLECULE: "CN(C)[C@@H]1C(O)=C(C(N)=O)C(=O)[C@@]2(O)C(O)=C3C(=O)c4c(O)ccc(Cl)c4[C@@](C)(O)[C@H]3C[C@@H]12"
  MEASUREMENT_TYPE: "MEAN CORPUSCULAR VOLUME"
  UOM: "fL"
  OBSERVED_MEASUREMENT: 61.8

Consider the additional molecule presented here.
// sample CC(C)=CCC/C(C)=C/CO , its MEAN CORPUSCULAR VOLUME was 65.37
